Entries annotated with measured composite z-score
# assayed-target: Follistatin (Homo sapiens)
# procedure-text: follistatin binders on small-molecule microarrays, primary screen, biochemical, small-molecule microarray, 635/667 nm fluorescence (AID 1132)
# measurement-conditions: FST binding, 635 nm fluorescence, higher = more signal
Quick one: just the number, no unit, thanks!

Below, 6 compounds whose answers are already recorded.
# compound, composite z-score
rows = [
    ("CCCCCN1CC=CC23O[C@@H]4C=CCOC(=O)[C@@H]4[C@H]2C(=O)N(CCCCCO)[C@@H]3C1=O (some centres undefined)", -0.232),
    ("COC(=O)C(CC#Cc1ccc2c(c1)[C@]1(C(=O)N2)[C@H](c2ccc(O)cc2)N2[C@H](c3ccccc3)[C@H](c3ccccc3)OC(=O)[C@H]2[C@@H]1C(=O)N1CCc2cc(OC)c(OC)cc2C1)C(=O)OC", 1.36),
    ("O=C1NC(=O)C2C1C=CC(C(O)c1ccc(F)cc1)N2Nc1ccccn1 (centres undefined)", 0.269),
    ("O=C1OCCC/C=C\\[C@H]2OC34C=CCN(Cc5ccccc5)C(=O)[C@H]3N(CCCCCO)C(=O)[C@@H]4C12 (some centres undefined)", -1.07),
    ("[N-]=[N+]=Nc1ccccc1[C@@H]1OC(c2ccc(OCCCO)cc2)=N[C@]1(Cc1ccccc1)C(N)=O", 0.207),
    ("O=C(NCC(F)(F)F)[C@@H]1c2ccccc2C(=O)N(CC23CC4CC(CC(C4)C2)C3)[C@H]1c1ccc(CO)cc1", 1.16),
]

Reported composite z-score ( `C=CC[C@@]1(C(=O)N(C)C)N=C(c2ccc(OCCCO)cc2)O[C@@H]1c1ccccc1` ) = 0.0236

The reported composite z-score of the compound `C=CCNC(=O)[C@@H]1[C@H]2C(=O)O[C@H](c3ccccc3)[C@H](c3ccccc3)N2[C@H](c2ccccc2OCCO)[C@@]12C(=O)N(C(=O)OCCOC)c1ccc(C#CCCO)cc12` was 0.881

composite z-score in this record for `C=C(CC1([C@@H](NP(=O)(c2ccccc2)c2ccccc2)[C@H]2C[C@@H]2CCN(C(=O)OCC)S(=O)(=O)c2ccc(C)cc2)CC1)c1ccccc1` : 0.712

The compound identified as `COc1ccc([Si](C)(C)[C@H]2[C@H](CCn3cc([C@H](O)c4ccccc4)nn3)O[C@@]3(C(=O)N(C)c4c(Br)cc(C)cc43)[C@@H]2C)cc1` registered its composite z-score at 1.5

The measured composite z-score associated with `CO[C@H]1O[C@H](CO)[C@@H](OC(=O)Nc2ccccc2)[C@@H]2OC(=O)[C@H](Cc3ccccc3)C/C=C/C[C@@H](Cc3ccccc3)C(=O)O[C@@H]12` reads 1.29

So, `COC(=O)[C@@]1(Cc2ccc(F)cc2)[C@H]2c3cc(C(=O)N(C)C)n(CCn4cc([N+](=O)[O-])nc4C)c3C[C@H]2CN1C(=O)c1ccccc1` ? Its composite z-score was -0.394

// composite z-score lookup, compound = `COCCn1c(C(=O)N2CCCC2)cc2c1C[C@H]1CN(C(=O)c3ccccc3)[C@@](Cc3ccccc3)(C(=O)OC)[C@@H]21` , result: 0.298

`C=CCOC(=O)[C@@H]1[C@H]2C(=O)O[C@H](c3ccccc3)[C@H](c3ccccc3)N2[C@H](c2ccc(OCCOC(=O)[C@H]3C[C@H]4C(=O)NCC(=O)N4[C@H]3c3ccc(O)cc3)cc2)[C@@]12C(=O)Nc1ccc(I)cc12` has a reported composite z-score of 1.27
